Source of measurements: PubChem BioAssay (NCATS)

# Tested on: CP250
# test method notes: qHTS profiling for inhibitors of Plasmodium falciparum proliferation (AID 504749); further: nearly all actives have a fitted effect of over 60% in size
# condition: P. falciparum in erythrocytes, SYBR Green DNA, 72 h; series mostly up to 28.7 µM
Results filed as inconclusive are left out. The source made the active and inactive calls. The call rests on the fitted dose curve; in most records, active means well fitted inhibition curve with a large enough effect; inconclusive means small, poorly fitted or top-dose-only effect; inactive means flat fitted curve, though single readings scatter.
Would you mind answering with one of these outcomes? active, inactive

Answered examples (8):
Cc1cc(C(C)(C)C)cc(C)c1CC1=NCCN1	inactive
CN(C)CCOC(c1ccccc1)c1ccccc1	inactive
Cc1cn([C@H]2C=C[C@@H](CO)O2)c(=O)[nH]c1=O	inactive
NS(=O)(=O)c1cc2c(cc1Cl)NCNS2(=O)=O	inactive
CC(CCc1ccc(O)cc1)NCCc1ccc(O)c(O)c1 (configuration not stated)	inactive
COc1ccccc1N1CCN(CC(O)COc2cccc3ccccc23)CC1 (configuration not stated)	inactive
CN(C)CCC=C1c2ccccc2C=Cc2ccccc21	inactive
CN(CCOc1ccc(NS(C)(=O)=O)cc1)CCc1ccc(NS(C)(=O)=O)cc1	inactive

Returns: the outcome recorded for CC(C)NCC(O)COc1ccc(CCOCC2CC2)cc1 (configuration not stated) in this assay. inactive

Which result was noted for this molecule in the test: Cc1ccc(C(=O)Nc2ccc(S(=O)(=O)O)c3cc(S(=O)(=O)O)cc(S(=O)(=O)O)c23)cc1NC(=O)c1cccc(NC(=O)Nc2cccc(C(=O)Nc3cc(C(=O)Nc4ccc(S(=O)(=O)O)c5cc(S(=O)(=O)O)cc(S(=O)(=O)O)c45)ccc3C)c2)c1 inactive

Kindly provide the recorded test outcome for the following molecule: CN1CCC(=C2c3ccccc3CC(=O)c3sccc32)CC1 inactive

Which outcome did this test record for the molecule CC[C@@]1(O)C(=O)OCc2c1cc1n(c2=O)Cc2cc3c(CN(C)C)c(O)ccc3nc2-1 ? active

Which outcome was assigned to NCCS(=O)(=O)O in this test? inactive

Please share the test call associated with O=C1N(c2ccccc2)c2ccccc2C1(Cc1ccncc1)Cc1ccncc1 . inactive

Dear colleague, could you share the recorded outcome for COc1nc(C)nc(Cl)c1NC1=NCCN1 when you have a moment? inactive

* * *

# test method notes: Quantitative High-Throughput drug screen in 47 multiple myeloma cell lines against the NCATS MIPE library collection: KMS26_JCRB cell viability assay (AID 1918975); further: nearly all actives have a fitted effect of over 45% in size; further: potency means the concentration at half of the fitted maximal effect
# condition: KMS26 myeloma cells viability, CellTiter-Glo ATP, 48 h; series mostly up to 45.8 µM
Results filed as inconclusive are left out. Calls of active or inactive are those of the source. The call rests on the fitted dose curve; in most records, active means well fitted cell-killing curve with a large enough effect; inconclusive means small, poorly fitted or top-dose-only effect, or effect the other way; inactive means no such curve, though single readings can be large or run the other way.
measurement kind: Potency

N[C@@H](Cc1c[nH]c2ccc(O)cc12)C(=O)O	inactive
O=C(C1CCCCC1)N1CC(=O)N2CCc3ccccc3C2C1 (stereo not drawn)	inactive
CN(C)CCC=C1c2ccccc2C=Cc2ccccc21	6.62 µM (active)

* * *

# test method notes: P-glycoprotein substrates identified in KB-8-5-11 adenocarcinoma cell line, qHTS therapeutic library screen (AID 1346987); further: nearly all actives have a fitted effect of over 65% in size
# condition: KB-8-5-11 (P-gp overexpressing) viability, CellTiter-Glo, 72 h; series mostly up to 44.5 µM
Inconclusive results are not listed. Calls of active or inactive are those of the source. The call rests on the fitted dose curve; in most records, active means well fitted inhibition curve with a large enough effect; inconclusive means small, poorly fitted or top-dose-only effect; inactive means flat fitted curve, though single readings scatter.
Bench note: report the call from T for active, F for inactive

Examples with answers:
CCCCc1oc2ccccc2c1C(=O)c1cc(I)c(OCCN(CC)CC)c(I)c1	F
CC(C)Cc1ccc(C(C)C(=O)O)cc1 (configuration not stated)	F
CN(C)CCCN1c2ccccc2CCc2ccc(Cl)cc21	T

Test call for this molecule, please: NC(=O)OCC(COC(N)=O)c1ccccc1 F

# lookup: test call for NC12CC3CC(CC(C3)C1)C2 F

Give the logged outcome of this assay for the following molecule: CN(C)c1nc(N(C)C)nc(N(C)C)n1 F
